Each recorded value in this set is attributed to patent EP0942911B1.

# tested_system: α-1b adrenoreceptor (Mesocricetus auratus, UniProt P18841)
# assay_name: biochemical
# Format: binding, hamster
# assay_context: [3H]-prazosin radioligand; cloned receptor in LTK cell membranes; read-out: Radioligand Binding (Ki, nM) 1b (Hamster)
Structures can show the parent of a compound that is named as a salt.
measurement_type: Ki (nM)
One number for each entry, in nM.

Example entries and their recorded answers appear below.
INSERT INTO assay_data (compound, measurement_type, recorded_measurement) VALUES
  ('COc1cccc2c1[C@@H]1CN(CCCCn3c(=O)[nH]c4c(sc5ccc(OC(C)C)nc54)c3=O)C[C@H]1CO2 [Example 51, hydrochloride]', 'Ki', 0.868),
  ('COc1cccc2c1[C@@H]1CN(CCCCn3c(=O)[nH]c4c(sc5ccc(-c6ccccc6)nc54)c3=O)C[C@H]1CO2 [Example 52, dihydrochloride]', 'Ki', 13.6);

Query: Ki; subject: COc1cccc2c1[C@H]1CCN(CCCCn3c(=O)[nH]c4c(sc5ncc(Cl)nc54)c3=O)C[C@@H]1CO2 [Example 96, dihydrochloride] 10.4

---

# tested_system: α-1b adrenoreceptor (Mesocricetus auratus, UniProt P18841)
# Sequence (P18841 1-515): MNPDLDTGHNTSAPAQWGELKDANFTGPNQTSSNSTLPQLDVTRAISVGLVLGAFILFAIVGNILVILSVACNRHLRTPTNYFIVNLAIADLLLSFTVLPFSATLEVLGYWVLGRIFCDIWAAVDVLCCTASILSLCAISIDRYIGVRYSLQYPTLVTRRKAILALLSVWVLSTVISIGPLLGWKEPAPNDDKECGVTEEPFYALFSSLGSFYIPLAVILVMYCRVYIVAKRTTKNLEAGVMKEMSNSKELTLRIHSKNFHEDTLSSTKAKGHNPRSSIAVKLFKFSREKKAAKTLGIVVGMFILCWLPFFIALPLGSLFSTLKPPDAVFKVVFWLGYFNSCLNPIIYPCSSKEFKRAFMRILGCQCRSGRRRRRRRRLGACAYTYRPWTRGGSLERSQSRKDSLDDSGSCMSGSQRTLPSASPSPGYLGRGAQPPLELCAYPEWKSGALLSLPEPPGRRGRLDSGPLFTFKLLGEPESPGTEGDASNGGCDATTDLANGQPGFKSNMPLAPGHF
# assay_name: biochemical
# Format: binding, hamster
measurement_type: Ki (nM)
Give bare numbers, in nM.

Can you look up Ki on α-1b adrenoreceptor (Mesocricetus auratus, UniProt P18841) for COc1cc2nc(N3CCN(C(=O)C4COc5ccccc5O4)CC3)nc(N)c2cc1OC (stereo not shown) [Doxazosin, doxazosin, reference compound] ? 0.793

---

# tested_system: α-1d adrenoreceptor (Rattus norvegicus, UniProt P23944)
# Sequence (P23944 1-561): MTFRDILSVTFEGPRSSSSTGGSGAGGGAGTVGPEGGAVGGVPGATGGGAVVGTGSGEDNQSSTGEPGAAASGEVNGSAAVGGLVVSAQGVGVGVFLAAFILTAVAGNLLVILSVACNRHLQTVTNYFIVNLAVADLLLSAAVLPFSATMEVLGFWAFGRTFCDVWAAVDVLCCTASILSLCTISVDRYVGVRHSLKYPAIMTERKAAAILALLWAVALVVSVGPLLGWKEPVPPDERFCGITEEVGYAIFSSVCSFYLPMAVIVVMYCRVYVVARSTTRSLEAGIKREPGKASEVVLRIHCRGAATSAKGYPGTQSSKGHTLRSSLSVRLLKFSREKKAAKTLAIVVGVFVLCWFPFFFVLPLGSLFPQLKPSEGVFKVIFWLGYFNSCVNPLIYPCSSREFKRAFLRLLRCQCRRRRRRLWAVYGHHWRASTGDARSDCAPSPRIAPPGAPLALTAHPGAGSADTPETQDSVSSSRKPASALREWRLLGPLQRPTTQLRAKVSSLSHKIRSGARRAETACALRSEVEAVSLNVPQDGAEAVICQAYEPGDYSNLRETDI
# assay_name: biochemical
# Format: binding
# assay_context: [3H]-prazosin radioligand; cloned receptor in LTK cell membranes; read-out: Radioligand Binding (Ki, nM) 1d (Rat)
Structures can show the parent of a compound that is named as a salt.
Kindly supply the reported Ki values for the records listed here.
Answers are plain numbers, in nM.

Some solved cases for reference:
INSERT INTO measurements (compound, measurement_type, recorded_measurement) VALUES
  ('COc1cccc2c1[C@@H]1CN(CCCCn3c(=O)[nH]c4c(sc5ncccc54)c3=O)C[C@@H]1CO2 [Example 34, hydrochloride]', 'Ki', 0.339),
  ('COCCn1c(=O)n(CCCCN2C[C@@H]3COc4cccc(OC)c4[C@H]3C2)c(=O)c2sc3nccnc3c21 [Example 11, hydrochloride]', 'Ki', 1.46);

For the compound shown here, COc1cnc2sc3c(=O)n(CCCCN4C[C@H]5COc6cccc(OC)c6[C@@H]5C4)c(=O)[nH]c3c2c1 [Example 55, hydrochloride] , give the reported Ki. 0.02
